- tgt: EGFR (ErbB1) (Homo sapiens)
- Construct: purchased Invitrogen
- Sequence (P00533 25-1210): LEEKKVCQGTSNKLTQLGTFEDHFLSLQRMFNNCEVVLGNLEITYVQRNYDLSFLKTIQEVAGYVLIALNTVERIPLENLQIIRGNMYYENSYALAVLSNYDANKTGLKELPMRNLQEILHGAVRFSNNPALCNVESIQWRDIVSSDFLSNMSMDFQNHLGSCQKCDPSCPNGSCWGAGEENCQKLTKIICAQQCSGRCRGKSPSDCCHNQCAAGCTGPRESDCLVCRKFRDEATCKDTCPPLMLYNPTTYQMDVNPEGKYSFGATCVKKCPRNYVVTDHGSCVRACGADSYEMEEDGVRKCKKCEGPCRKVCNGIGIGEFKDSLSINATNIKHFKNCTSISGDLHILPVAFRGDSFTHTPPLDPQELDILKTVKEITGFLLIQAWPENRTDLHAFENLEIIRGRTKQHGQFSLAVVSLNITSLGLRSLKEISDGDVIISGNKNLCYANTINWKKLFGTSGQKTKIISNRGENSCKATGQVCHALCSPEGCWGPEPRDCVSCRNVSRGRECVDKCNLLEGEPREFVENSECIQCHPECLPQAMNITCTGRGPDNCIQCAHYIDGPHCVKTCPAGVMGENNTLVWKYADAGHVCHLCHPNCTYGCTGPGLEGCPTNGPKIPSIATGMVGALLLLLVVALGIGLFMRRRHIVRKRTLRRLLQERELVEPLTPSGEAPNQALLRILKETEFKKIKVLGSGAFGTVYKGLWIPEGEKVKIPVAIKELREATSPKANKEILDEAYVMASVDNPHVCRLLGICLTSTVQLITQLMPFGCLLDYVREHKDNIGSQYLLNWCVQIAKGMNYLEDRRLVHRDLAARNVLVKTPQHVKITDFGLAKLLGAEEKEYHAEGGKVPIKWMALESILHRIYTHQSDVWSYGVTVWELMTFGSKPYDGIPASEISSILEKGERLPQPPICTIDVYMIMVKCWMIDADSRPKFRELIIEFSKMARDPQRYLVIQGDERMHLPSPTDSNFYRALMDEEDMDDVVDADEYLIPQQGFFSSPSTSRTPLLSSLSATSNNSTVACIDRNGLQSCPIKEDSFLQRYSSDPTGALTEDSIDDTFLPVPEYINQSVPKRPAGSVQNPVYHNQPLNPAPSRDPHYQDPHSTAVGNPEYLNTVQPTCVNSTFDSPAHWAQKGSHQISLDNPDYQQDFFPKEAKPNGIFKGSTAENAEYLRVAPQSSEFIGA
- assay procedure: In vitro kinase assay (Z'-LYTE, Invitrogen)
- Assay type: biochemical
- condition notes: compound at 100 nM, ATP Km apparent, read-out: % of inhibition of the kinase compared to the control
Measured inhibition at 0.1 µM, listed per entry for reference.

compound="COC(=O)c1cc2cc(C=Cc3cc(NC(=O)c4ccc(CN5CCC(N(C)C)C5)c(C(F)(F)F)c4)ccc3C)cnc2[nH]1 (stereo not drawn)" observed="≥ 50%"
compound=COC(=O)c1cc2cc(NCCc3cccc(NC(=O)c4ccc(CN5CCN(C)CC5)c(C(F)(F)F)c4)c3)cnc2[nH]1 observed="≥ 50%"
compound="COC(=O)c1cc2cc(CCc3cccc(NC(=O)c4ccc(CN5CCC(N(C)C)C5)c(C(F)(F)F)c4)c3)cnc2[nH]1 (stereo not drawn)" observed="≥ 50%"
compound=COC(=O)c1cc2cc(CNc3cc(NC(=O)c4ccc(C)cc4)ccc3C)cnc2[nH]1 observed="< 50%"
compound=COC(=O)c1cc2cc(CCc3cc(NC(=O)c4ccc(CN5CCN(C)CC5)c(C(F)(F)F)c4)ccc3C)cnc2[nH]1 observed="≥ 50%"
compound=COC(=O)c1cc2cc(CCc3cccc(CNC(=O)c4ccc(CN5CCN(C)CC5)c(C(F)(F)F)c4)c3)cnc2[nH]1 observed="< 50%"
compound=COC(=O)c1cc2cc(COc3cc(NC(=O)c4ccc(CN5CCN(C)CC5)c(C(F)(F)F)c4)ccc3C)cnc2[nH]1 observed="≥ 50%"
compound=COC(=O)c1cc2cc(CCc3cccc(NC(=O)c4cncc(C(F)(F)F)c4)c3)cnc2[nH]1 observed="< 50%"
compound="COC(=O)c1cc2cc(COc3cc(NC(=O)c4ccc(CN5CCC(N(C)C)C5)c(C(F)(F)F)c4)ccc3C)cnc2[nH]1 (stereo not drawn)" observed="≥ 50%"
compound=CC(=O)c1cc2cc(C(=O)Nc3cc(NC(=O)c4cc(-n5cnc(C)c5)cc(C(F)(F)F)c4)ccc3C)cnc2[nH]1 observed="≥ 50%"

Lookup: Can you look up the measured inhibition at 0.1 µM of `COC(=O)c1cc2cc(CCc3cccc(NC(=S)Cc4cccc(C(F)(F)F)c4)c3)cnc2[nH]1` for me?
Found: < 50%

Lookup: Can you look up the measured inhibition at 0.1 µM of `CC(=O)c1cc2cc(CCc3cc(NC(=O)c4cncc(C(F)(F)F)c4)ccc3C)cnc2[nH]1` for me?
Found: < 50%

Lookup: Can you look up the measured inhibition at 0.1 µM of `COC(=O)c1cc2cc(CCc3cccc(NC(=O)c4cc[nH]c4)c3)cnc2[nH]1` for me?
Found: < 50%

Lookup: Can you look up the measured inhibition at 0.1 µM of `COC(=O)c1cc2cc(CCc3cccc(NC(=O)c4ccc5[nH]nnc5c4)c3)cnc2[nH]1` for me?
Found: < 50%

Lookup: Can you look up the measured inhibition at 0.1 µM of `COC(=O)c1cc2cc(CNCc3cccc(NC(=O)c4ccc(CN5CCN(C)CC5)c(C(F)(F)F)c4)c3)cnc2[nH]1` for me?
Found: < 50%

----------
- System: HuH7 cell line
- assay procedure: In vitro cell proliferation assay (MTT)
- Format: cell-based
- condition notes: Homo sapiens, Huh-7, HuH7, 72 hr, EC50 ≦ 100 nM, read-out: EC50, anti-proliferative activity
parameter measured: EC50

Lookup: Can you look up the measured EC50 of CC(=O)c1cc2cc(CCc3cc(NC(=O)c4ccc(CN5CCN(C)CC5)c(C(F)(F)F)c4)ccc3C)cnc2[nH]1 [OR0797] for me?
Found: ≤ 100 nM

----------
Measured inhibition at 0.1 µM, listed per entry for reference.
- tgt: PDGFRA (PDGFR alpha) (Homo sapiens)
- Construct: purchased Invitrogen
- Sequence (P16234 24-1089): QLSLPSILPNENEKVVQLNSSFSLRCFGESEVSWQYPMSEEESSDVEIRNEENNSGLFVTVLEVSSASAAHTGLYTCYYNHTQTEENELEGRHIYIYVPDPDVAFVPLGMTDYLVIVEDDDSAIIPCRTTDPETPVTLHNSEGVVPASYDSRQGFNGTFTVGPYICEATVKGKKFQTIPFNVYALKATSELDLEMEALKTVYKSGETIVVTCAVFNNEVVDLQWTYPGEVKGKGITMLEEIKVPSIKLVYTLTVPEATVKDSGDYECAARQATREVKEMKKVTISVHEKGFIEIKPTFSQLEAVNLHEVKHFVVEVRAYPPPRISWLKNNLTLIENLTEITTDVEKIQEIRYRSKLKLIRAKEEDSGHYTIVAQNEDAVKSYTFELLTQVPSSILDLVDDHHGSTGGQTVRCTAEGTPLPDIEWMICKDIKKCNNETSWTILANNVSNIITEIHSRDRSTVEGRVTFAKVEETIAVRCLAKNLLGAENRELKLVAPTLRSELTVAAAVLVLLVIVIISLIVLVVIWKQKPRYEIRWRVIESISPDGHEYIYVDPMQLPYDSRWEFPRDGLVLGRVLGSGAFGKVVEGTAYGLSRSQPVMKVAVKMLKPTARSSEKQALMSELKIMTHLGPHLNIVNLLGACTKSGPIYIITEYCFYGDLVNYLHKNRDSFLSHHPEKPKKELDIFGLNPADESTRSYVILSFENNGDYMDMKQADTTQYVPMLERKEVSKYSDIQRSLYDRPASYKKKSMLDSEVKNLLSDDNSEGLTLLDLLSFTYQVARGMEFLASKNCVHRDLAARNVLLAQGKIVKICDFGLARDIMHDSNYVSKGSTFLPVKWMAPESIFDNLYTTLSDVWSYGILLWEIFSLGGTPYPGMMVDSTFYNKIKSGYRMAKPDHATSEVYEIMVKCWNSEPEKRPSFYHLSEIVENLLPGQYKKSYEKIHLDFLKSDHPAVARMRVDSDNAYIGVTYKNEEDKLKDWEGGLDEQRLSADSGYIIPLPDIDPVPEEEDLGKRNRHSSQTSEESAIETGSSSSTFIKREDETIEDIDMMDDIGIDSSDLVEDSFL
- assay procedure: In vitro kinase assay (Z'-LYTE, Invitrogen)
- Assay type: biochemical
- condition notes: compound at 100 nM, ATP Km apparent, read-out: % of inhibition of the kinase compared to the control

Solved cases below.
compound="COC(=O)c1cc2cc(CCc3cccc(NC(=O)c4ccc5[nH]ccc5c4)c3)cnc2[nH]1 [OR0978]" parameter_measured="inhibition at 0.1 µM" observed="≥ 50%"
compound="COC(=O)c1cc2cc(CCc3cccc(NC(=O)c4cc[nH]c4)c3)cnc2[nH]1 [OR0976]" parameter_measured="inhibition at 0.1 µM" observed="< 50%"
compound="CC(=O)c1cc2cc(CCc3cc(NC(=O)c4cc(N5CCN(C)CC5)cc(C(F)(F)F)c4)ccc3C)cnc2[nH]1 [OR1059]" parameter_measured="inhibition at 0.1 µM" observed="≥ 50%"
compound="CC(=O)c1cc2cc(C(=O)Nc3cc(NC(=O)c4ccc(CN5CCN(C)CC5)c(C(F)(F)F)c4)ccc3C)cnc2[nH]1 [OR0724]" parameter_measured="inhibition at 0.1 µM" observed="< 50%"
compound="COC(=O)c1cc2cc(C=Cc3cc(NC(=O)c4ccc(CN5CCN(C)CC5)c(C(F)(F)F)c4)ccc3C)cnc2[nH]1 [OR0777]" parameter_measured="inhibition at 0.1 µM" observed="≥ 50%"

Lookup: Can you look up the measured inhibition at 0.1 µM of COC(=O)c1cc2cc(COc3cc(NC(=O)c4ccc(CN5CCN(C)CC5)cc4)ccc3C)cnc2[nH]1 [OR0779] for me?
Found: ≥ 50%

Lookup: Can you look up the measured inhibition at 0.1 µM of CC(=O)c1cc2cc(CCc3cc(NC(=O)c4cncc(C(F)(F)F)c4)ccc3C)cnc2[nH]1 [OR0800] for me?
Found: ≥ 50%

----------
- tgt: BRAF (Homo sapiens, UniProt P15056)
- Construct: purchased Invitrogen
- Sequence (P15056 whole entry): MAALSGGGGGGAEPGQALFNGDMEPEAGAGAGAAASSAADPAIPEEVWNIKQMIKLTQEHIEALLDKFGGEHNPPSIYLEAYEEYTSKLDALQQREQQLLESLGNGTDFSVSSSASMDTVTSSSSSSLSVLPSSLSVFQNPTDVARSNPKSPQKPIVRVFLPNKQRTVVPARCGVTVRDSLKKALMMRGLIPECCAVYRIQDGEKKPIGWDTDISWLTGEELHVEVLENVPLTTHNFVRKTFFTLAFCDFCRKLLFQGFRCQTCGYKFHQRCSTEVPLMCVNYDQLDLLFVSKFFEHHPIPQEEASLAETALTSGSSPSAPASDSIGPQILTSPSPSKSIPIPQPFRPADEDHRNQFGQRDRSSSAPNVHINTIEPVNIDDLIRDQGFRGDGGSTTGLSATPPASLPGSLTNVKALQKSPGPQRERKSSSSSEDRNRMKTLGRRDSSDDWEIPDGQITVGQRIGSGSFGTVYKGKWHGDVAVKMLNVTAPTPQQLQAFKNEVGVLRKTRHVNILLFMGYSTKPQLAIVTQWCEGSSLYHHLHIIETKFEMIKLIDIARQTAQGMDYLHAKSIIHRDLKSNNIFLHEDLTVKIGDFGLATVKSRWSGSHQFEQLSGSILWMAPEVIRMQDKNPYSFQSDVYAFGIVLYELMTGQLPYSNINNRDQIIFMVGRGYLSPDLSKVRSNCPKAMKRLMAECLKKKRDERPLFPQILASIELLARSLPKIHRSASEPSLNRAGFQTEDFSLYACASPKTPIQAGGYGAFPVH
- assay procedure: In vitro kinase assay (Z'-LYTE, Invitrogen)
- Format: biochemical
- condition notes: compound at 100 nM, ATP Km apparent, read-out: % of inhibition of the kinase compared to the control
Measured inhibition at 0.1 µM, listed per entry for reference.

compound="CC(=O)c1cc2cc(CCc3cc(NC(=O)c4ccc(CN5CCN(C)CC5)c(C(F)(F)F)c4)ccc3C)cnc2[nH]1 [OR0797]" tgt="BRAF (Homo sapiens, UniProt P15056)" observed="≥ 50%"

Lookup: Can you look up the measured inhibition at 0.1 µM of CC(=O)c1cc2cc(CCc3cc(NC(=O)c4cncc(C(F)(F)F)c4)ccc3C)cnc2[nH]1 [OR0800] for me?
Found: ≥ 50%

Lookup: Can you look up the measured inhibition at 0.1 µM of COC(=O)c1cc2cc(CCc3cc(NC(=O)c4ccc(CN5CCN(C)CC5)c(C(F)(F)F)c4)ccc3Cl)cnc2[nH]1 [OR1006] for me?
Found: < 50%

Lookup: Can you look up the measured inhibition at 0.1 µM of COC(=O)c1cc2cc(CCc3cc(NC(=O)c4ccc(CN5CCN(C)CC5)c(C(F)(F)F)c4)ccc3C)cnc2[nH]1 [OR0748] for me?
Found: ≥ 50%

----------
Measured inhibition at 0.1 µM, listed per entry for reference.
- tgt: FGFR2 (Homo sapiens, UniProt P21802)
- Construct: purchased Invitrogen
- Sequence (P21802 22-821): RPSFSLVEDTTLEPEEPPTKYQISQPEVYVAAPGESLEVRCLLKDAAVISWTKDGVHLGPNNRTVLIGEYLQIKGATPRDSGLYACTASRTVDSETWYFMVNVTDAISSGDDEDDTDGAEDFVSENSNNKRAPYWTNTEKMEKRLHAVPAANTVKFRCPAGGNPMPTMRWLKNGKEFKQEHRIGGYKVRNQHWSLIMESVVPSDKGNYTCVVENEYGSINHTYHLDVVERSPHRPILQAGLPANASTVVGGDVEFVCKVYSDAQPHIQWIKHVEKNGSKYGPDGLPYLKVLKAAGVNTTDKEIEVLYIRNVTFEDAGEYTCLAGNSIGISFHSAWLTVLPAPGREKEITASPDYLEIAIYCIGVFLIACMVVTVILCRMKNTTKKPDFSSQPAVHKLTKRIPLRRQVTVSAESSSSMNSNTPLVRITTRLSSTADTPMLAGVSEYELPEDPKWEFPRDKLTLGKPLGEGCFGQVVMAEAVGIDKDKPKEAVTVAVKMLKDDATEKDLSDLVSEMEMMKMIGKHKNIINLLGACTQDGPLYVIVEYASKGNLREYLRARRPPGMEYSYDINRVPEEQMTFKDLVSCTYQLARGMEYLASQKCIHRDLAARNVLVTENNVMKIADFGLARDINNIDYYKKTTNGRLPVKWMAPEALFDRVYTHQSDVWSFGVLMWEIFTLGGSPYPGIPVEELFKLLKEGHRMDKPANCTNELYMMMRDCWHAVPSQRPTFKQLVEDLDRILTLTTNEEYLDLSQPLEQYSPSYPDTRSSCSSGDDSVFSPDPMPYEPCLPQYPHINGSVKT
- assay procedure: In vitro kinase assay (Z'-LYTE, Invitrogen)
- Type: biochemical
- condition notes: compound at 100 nM, ATP Km apparent, read-out: % of inhibition of the kinase compared to the control

Solved cases below.
molecule="CC(=O)c1cc2cc(CCc3cc(NC(=O)c4cc(N5CCN(C)CC5)cc(C(F)(F)F)c4)ccc3C)cnc2[nH]1 [OR1059]" observed="≥ 50%"
molecule="CC(=O)c1cc2cc(CCc3cc(NC(=O)c4ccc(CN5CC[C@H](N(C)C)C5)c(C(F)(F)F)c4)ccc3C)cnc2[nH]1 [OR0812]" observed="≥ 50%"
molecule="COC(=O)c1cc2cc(CCc3cccc(NC(=O)c4cncc(C(F)(F)F)c4)c3)cnc2[nH]1 [OR0981]" observed="< 50%"
molecule="COC(=O)c1cc2cc(CCc3cc(NC(=O)c4ccc(CN5CCN(C)CC5)c(C(F)(F)F)c4)ccc3C)cnc2[nH]1 [OR0748]" observed="≥ 50%"
molecule="COC(=O)c1cc2cc(CCc3cccc(NC(=O)c4ccc(CN5CCC(N(C)C)C5)c(C(F)(F)F)c4)c3)cnc2[nH]1 (stereo not shown) [OR0922]" observed="≥ 50%"
molecule="COC(=O)c1cc2cc(C=Cc3cc(NC(=O)c4ccc(CN5CCN(C)CC5)cc4)ccc3C)cnc2[nH]1 [OR0776]" observed="< 50%"

Attention now turns to another entry.
Lookup: Can you look up the measured inhibition at 0.1 µM of CC(=O)c1cc2cc(CCc3cc(NC(=O)Nc4cccc(C(F)(F)F)c4)ccc3C)cnc2[nH]1 [OR0919] for me?
Found: < 50%

----------
- tgt: FGFR2 (Homo sapiens, UniProt P21802)
- Construct: purchased Invitrogen
- assay procedure: In vitro kinase assay (Z'-LYTE, Invitrogen)
- Format: biochemical
- condition notes: compound at 100 nM, ATP Km apparent, read-out: % of inhibition of the kinase compared to the control
parameter measured: inhibition at 0.1 µM

Solved cases below.
compound="CC(=O)c1cc2cc(CCc3cc(NC(=O)c4ccc(CN5CCC(N(C)C)C5)c(C(F)(F)F)c4)ccc3C)cnc2[nH]1 (centres unmarked)" parameter_measured="inhibition at 0.1 µM" observed="≥ 50%"
compound=COC(=O)c1cc2cc(CCc3cc(NC(=O)c4ccc(CN5CCN(C)CC5)c(C(F)(F)F)c4)ccc3Cl)cnc2[nH]1 parameter_measured="inhibition at 0.1 µM" observed="≥ 50%"
compound="COC(=O)c1cc2cc(C=Cc3cc(NC(=O)c4ccc(CN5CCC(N(C)C)C5)c(C(F)(F)F)c4)ccc3C)cnc2[nH]1 (centres unmarked)" parameter_measured="inhibition at 0.1 µM" observed="< 50%"
compound=COC(=O)c1cc2cc(CCc3cc(NC(=S)c4ccc(CN5CCN(C)CC5)cc4)ccc3C)cnc2[nH]1 parameter_measured="inhibition at 0.1 µM" observed="≥ 50%"

Lookup: Look up inhibition at 0.1 µM with FGFR2 (Homo sapiens, UniProt P21802) for this compound: `COC(=O)c1cc2cc(CNc3cc(NC(=O)c4ccc(C)cc4)ccc3C)cnc2[nH]1`
Found: < 50%

Lookup: Look up inhibition at 0.1 µM with FGFR2 (Homo sapiens, UniProt P21802) for this compound: `COC(=O)c1cc2cc(CNC(=O)c3cc(NC(=O)c4ccc(CN5CCN(C)CC5)cc4)ccc3C)cnc2[nH]1`
Found: < 50%

Lookup: Look up inhibition at 0.1 µM with FGFR2 (Homo sapiens, UniProt P21802) for this compound: `COC(=O)c1cc2cc(C=Cc3cc(NC(=O)c4ccc(CN5CCN(C)CC5)c(C(F)(F)F)c4)ccc3C)cnc2[nH]1`
Found: ≥ 50%

Lookup: Look up inhibition at 0.1 µM with FGFR2 (Homo sapiens, UniProt P21802) for this compound: `CC(=O)c1cc2cc(CCc3cc(NC(=O)Cc4cccc(C(F)(F)F)c4)ccc3C)cnc2[nH]1`
Found: < 50%

Lookup: Look up inhibition at 0.1 µM with FGFR2 (Homo sapiens, UniProt P21802) for this compound: `COC(=O)c1cc2cc(CCc3cccc(NC(=O)c4ccc5[nH]nnc5c4)c3)cnc2[nH]1`
Found: < 50%

Lookup: Look up inhibition at 0.1 µM with FGFR2 (Homo sapiens, UniProt P21802) for this compound: COC(=O)c1cc2cc(CCc3cc(NC(=O)C4CCC(C(F)(F)F)CC4)ccc3C)cnc2[nH]1 (centres unmarked)
Found: < 50%

Lookup: Look up inhibition at 0.1 µM with FGFR2 (Homo sapiens, UniProt P21802) for this compound: `CC(=O)c1cc2cc(C(=O)Nc3cc(NC(=O)c4ccc(CN5CCN(C)CC5)c(C(F)(F)F)c4)ccc3C)cnc2[nH]1`
Found: < 50%

Lookup: Look up inhibition at 0.1 µM with FGFR2 (Homo sapiens, UniProt P21802) for this compound: `CC(=O)c1cc2cc(CCc3cc(NC(=S)Nc4cccc(C(F)(F)F)c4)ccc3C)cnc2[nH]1`
Found: < 50%

Lookup: Look up inhibition at 0.1 µM with FGFR2 (Homo sapiens, UniProt P21802) for this compound: `COC(=O)c1cc2cc(C=Nc3cc(NC(=O)c4ccc(CN5CCN(C)CC5)c(C(F)(F)F)c4)ccc3C)cnc2[nH]1`
Found: ≥ 50%

Lookup: Look up inhibition at 0.1 µM with FGFR2 (Homo sapiens, UniProt P21802) for this compound: `COC(=O)c1cc2cc(CNc3cc(NC(=O)c4ccc(CN5CCN(C)CC5)c(C(F)(F)F)c4)ccc3C)cnc2[nH]1`
Found: ≥ 50%

The reported measurements were obtained from patent US9550772B2.
